- Tested on: NCI-H460 lung
- methodNotes: NCI-60 one-dose screen, 48 h (100 = growth as untreated, 0 = no growth, -100 = all killed)
- measurementContext: 10 µM
Compounds without any hit were thinned out: in the full panel of roughly 83,000, 20% have a hit.
parameter: growth (%)

INSERT INTO measurements (compound, parameter, endpointvalue) VALUES
  ('N=C(N)c1ccc(-c2ccc(-c3ccccc3)o2)nc1', 'growth', 90.3),
  ('CC1(C)CCC(=NNC(N)=S)CC1', 'growth', 104),
  ('COc1cc(-c2cc(C(=O)N3CCN(C(=O)c4ccccc4NCc4cccs4)CC3)nc3cc(-c4ccccc4)nn23)cc(OC)c1OC', 'growth', 38.4),
  ('CCc1ccc2c(c1)N(CCO)C1=C(C(=O)OC1)C2c1ccccc1 (stereo unspecified)', 'growth', 109),
  ('COc1cccc(Cn2c(-c3nonc3N)nc3ccccc32)c1', 'growth', 6.52),
  ('COc1ccc(NC(=O)Cc2nc3nc4sc(C)c(C)c4c(=O)n3[nH]2)cc1', 'growth', 110),
  ('COc1cc2c(cc1OCCCN1CCN(c3ncnc4ccccc34)CC1)N=CC1CCCN1C2=O (stereo unspecified)', 'growth', 8.4),
  ('COc1ccc(OC)c(/C=C/c2nc(SCc3ccccc3)n(-c3ccc(Cl)cc3)n2)c1', 'growth', 24.4),
  ('COc1cc(-c2cc(/C=C3\C(=O)Nc4ccc(Cl)cc43)[nH]n2)cc(OC)c1OC', 'growth', 38),
  ('COc1cc(NC(=O)c2sc3nc4c(cc3c2N)C(O)CCC4)cc(OC)c1 (stereo unspecified)', 'growth', 104),
  ('N#CCCN(NC(=O)OCc1ccccc1)C(=O)OCc1ccccc1', 'growth', 103),
  ('Cc1cc(C)c(NC(=O)c2sc3nc4c(cc3c2N)C(=O)CCC4)c(C)c1', 'growth', 6.43),
  ('CC/C(=C(/c1ccc(OCCN(C)C)cc1)c1ccc(OC(=O)CCCCCCCCC(=O)c2c(C)[nH]c(/C=C3\N=C(c4ccc[nH]4)C=C3OC)c2C)cc1)c1ccccc1', 'growth', 46.9),
  ('CN(C)CCNC(=O)c1cccn2c(=O)c3cc4ccccc4cc3nc12', 'growth', -31.7),
  ('COc1ccc(Cn2c(C(N)=O)cc3c2-c2nc(N)ncc2CCC3)cc1', 'growth', 97.7),
  ('CC(C)(C)c1ccc(N2CSC(=S)N(c3ccc(C(C)(C)C)cc3)C2)cc1', 'growth', 91.7),
  ('N#CCCN1C/C(=C/c2ccc(Br)cc2)C(=O)/C(=C/c2ccc(Br)cc2)C1', 'growth', -55.2),
  ('O=C(c1cccs1)c1ccccc1Cc1ccccc1', 'growth', 107),
  ('Cc1cc2ccccc2nc1-c1ccccc1F', 'growth', 107),
  ('COC(=O)[C@@H]1[C@H](O)[C@H](C)[C@H](O)[C@@](C)(O)/C=C\C=C(C)C(=O)Nc2c(C)c(OC(C)=O)c3c(c2O)C(=O)C(C)=C2OCOC(=C23)C(C)=C[C@@](C)(O)[C@H](O)[C@@H](C)[C@H]1OC(C)=O', 'growth', 127),
  ('CC12O[C@H](C[C@@H](O)[C@H]1O)n1c3ccccc3c3c4c(c5c6ccccc6n2c5c31)C(=O)N(CCCN)C4=O', 'growth', 10.4);
